Source listed as patent US20140370037A1.

# TEST_SYSTEM: T1, human DLL3 antigen (human, UniProt Q9NYJ7 27-492, limits assumed)
# T1 construct: also called immobilized human DLL3; recombinant human DLL3
# T1 sequence (looked up): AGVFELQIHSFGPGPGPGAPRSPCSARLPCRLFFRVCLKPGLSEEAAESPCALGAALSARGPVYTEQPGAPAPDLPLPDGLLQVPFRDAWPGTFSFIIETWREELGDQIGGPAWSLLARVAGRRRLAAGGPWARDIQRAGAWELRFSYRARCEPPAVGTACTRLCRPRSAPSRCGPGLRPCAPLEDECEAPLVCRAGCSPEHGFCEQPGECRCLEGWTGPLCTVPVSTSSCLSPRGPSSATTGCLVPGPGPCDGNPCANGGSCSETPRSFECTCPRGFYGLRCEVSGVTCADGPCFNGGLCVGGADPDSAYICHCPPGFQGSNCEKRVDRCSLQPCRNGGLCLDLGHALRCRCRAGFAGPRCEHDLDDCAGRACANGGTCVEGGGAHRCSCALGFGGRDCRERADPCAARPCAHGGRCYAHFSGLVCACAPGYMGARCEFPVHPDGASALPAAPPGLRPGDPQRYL
# PROCEDURE_DETAILS: ELISA or flow cytometry screen
QUANTITY: binding result

| BINDER | QUANTITY | READING |
| --- | --- | --- |
| SC16.19 (antibody, V domains shown, murine mAb) VH: EVQLQQSGAELVRPGASVKLSCTASGFNIKDSLLHWVKQRPEKGLEWIGWIDPEDGETKYAPNFQDKATITTDSSSNTAYLQLISLTSVDTAIYYCAYGNYVRHFDYWGQGTTLTVSS VL: DIQMTQSPSSLSASLGGKVTFTCKASQDIHKYVAWYQHKPGKGPRLLIHYTSTLQPGISSRFSGSGSGRDYSFSISNLEPEDIATYYCLQYNNLYTFGGGTKLEIKR | binding result | binds |
| SC16.67 (antibody, V domains shown, murine mAb) VH: EVQLVETGGGLVQPKGSLKLSCAVSAFTFTTYAMNWVRQAPGKGLEWVARIRNKSNNYATYYADSVKDRFTISRDDSQSMLYLQMNNLKIEDTAMYYCVFYYDYVYWGQGTLVTVSA VL: QAVVTQESALTTSPGETVTLTCRSSTGAVTTSNYANWIQEKPDHLFTGLIGGTNNRAPGVPARFSGSLIGDKAALTITGAQTEDEAIYFCGLWYSNHLVFGGGTKLTVL | binding result | binds |
